B1: ADD1 (parent)
chain: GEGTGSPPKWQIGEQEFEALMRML

Variants of: B1
Experiment: protein stability index of a GFP-peptide fusion (GPS, HEK-293T) (PSI 1-6); higher = more stable;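 further: lentivirally expressed fusions sorted by FACS into six bins by GFP to DsRed ratio, PSI derived from sequencing read proportions per bin multiplied by bin number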
Settings: c terminus: a fixed tail appended
# protein stability index >= 4 gives YES, anything below gives NO

### Prompt Record G13P ; criterion: protein stability index no lower than 4. Met?
### Response NO

### Prompt State whether the measured protein stability index reaches 4, counting equality as reaching it, for E18W
### Response NO

### Prompt Is it the case that R22S has protein stability index reaching or exceeding 4?
### Response NO

### Prompt Decide: is the reported value of protein stability index for A19G equal to or greater than 4?
### Response NO

### Prompt # bool: protein stability index of Q15D >= 4
### Response NO

### Prompt State whether the measured protein stability index reaches 4, counting equality as reaching it, for E14H
### Response NO

### Prompt Could you tell me if the measured protein stability index of L20W reaches 4 or more?
### Response NO

### Prompt API: above_or_equal(metric=protein stability index, cutoff=4) for item A19K
### Response NO

### Prompt Is protein stability index for L20G at or above 4?
### Response YES

### Prompt Identify whether the reported protein stability index of the following variant is 4 or greater: G13Q
### Response NO

### Prompt Check this variant for protein stability index at or above 4: E14A
### Response NO

### Prompt Answer whether protein stability index of G1N is greater than or equal to 4.
### Response NO

### Prompt Check the entry L24K : does protein stability index equal or exceed 4?
### Response YES

### Prompt hey, is protein stability index for this one >= 4? M23R
### Response YES

### Prompt Given E18N , state whether its protein stability index is at least 4.
### Response NO

### Prompt Reported protein stability index reaches at least 4 for L20A ?
### Response YES

### Prompt Entry P7N : is its protein stability index no less than 4?
### Response NO

### Prompt Quick check: does E2P have protein stability index greater than or equal to 4?
### Response NO

### Prompt Form field: protein stability index at least 4? Entry: Q15M
### Response NO

### Prompt Entry W10A : is its protein stability index no less than 4?
### Response NO

### Prompt Reported protein stability index reaches at least 4 for S6D ?
### Response NO

### Prompt Is it the case that P8Q has protein stability index reaching or exceeding 4?
### Response NO

Source of measurements: the supplement of paper PMC10567573
